- Tested on: P. falciparum W2
- protocol_details: Malaria SYBR Green Fluorescence Assay, W2 strain
- Assay type: cell-based, Plasmodium falciparum
- condition: SYBR Green Assay
# W2 per entry
Write down the numeric answer in ng/mL and omit the unit.

Clc1cc(Cl)cc(-c2nc(NCc3cccnc3)nc(C(Cl)(Cl)Cl)n2)c1 [Cmpd 209] | 67

Item: CN1CCCN(c2nc(-c3ccc(Cl)c(Cl)c3)nc(C(Cl)(Cl)Cl)n2)CC1 [Compound 113] | W2: 23

// sample CC(C)(C)c1ccc(-c2nc(NCCc3cccnc3)nc(C(Cl)(Cl)Cl)n2)cc1 [Cmpd 175] , its W2 was 54

W2 reading for NC1(CNc2nc(-c3cccc(C(F)(F)F)c3)nc(C(Cl)(Cl)Cl)n2)CC1 [Compound 682] : 31

* * *

- System: P. falciparum W2
- protocol_details: Malaria SYBR Green Fluorescence Assay, W2 strain
- Assay type: cell-based, Plasmodium falciparum
- condition: SYBR Green Assay
test_readout: log10 of W2 (log10 of the value in ng/mL)
A value of 2 here means W2 of 100 in ng/mL, since values are log10.

CN1CCC(Nc2nc(-c3cccc(C(F)(F)F)c3)nc(C(Cl)(Cl)Cl)n2)CC1 | 1.20
CC1(C)CC(Nc2nc(-c3ccc(C(C)(C)C)cc3)nc(C(Cl)(Cl)Cl)n2)CC(C)(C)N1 | 0.48
COc1ccccc1-c1nc(N2CCCNCC2)nc(C(Cl)(Cl)Cl)n1 | 1.58
NC1(CNc2nc(-c3ccc(Cl)cc3)nc(C(Cl)(Cl)Cl)n2)CCOCC1 | 1.18
CCN(CC)CCNc1nc(-c2ccccc2-c2ccc(C)cc2)nc(C(Cl)(Cl)Cl)n1 | 2.69

Field log10 of W2 (entry Cc1ccc(-c2ccccc2-c2nc(NCCN3CCCC3)nc(C(Cl)(Cl)Cl)n2)cc1 ) reads 2.68

Quick note, log10 of W2 for OCCN1CCN(c2nc(Nc3ccc(OC(F)(F)F)cc3)nc(C(Cl)(Cl)Cl)n2)CC1 landed at 2.03

The reported value for CN1CCCC1CCNc1nc(Nc2ccccc2N2CCOCC2)nc(C(Cl)(Cl)Cl)n1 (centres unmarked) in terms of log10 of W2 is 1.88

* * *

- assayed_target: UniProt:Q12809
- Sequence (Q12809 whole entry): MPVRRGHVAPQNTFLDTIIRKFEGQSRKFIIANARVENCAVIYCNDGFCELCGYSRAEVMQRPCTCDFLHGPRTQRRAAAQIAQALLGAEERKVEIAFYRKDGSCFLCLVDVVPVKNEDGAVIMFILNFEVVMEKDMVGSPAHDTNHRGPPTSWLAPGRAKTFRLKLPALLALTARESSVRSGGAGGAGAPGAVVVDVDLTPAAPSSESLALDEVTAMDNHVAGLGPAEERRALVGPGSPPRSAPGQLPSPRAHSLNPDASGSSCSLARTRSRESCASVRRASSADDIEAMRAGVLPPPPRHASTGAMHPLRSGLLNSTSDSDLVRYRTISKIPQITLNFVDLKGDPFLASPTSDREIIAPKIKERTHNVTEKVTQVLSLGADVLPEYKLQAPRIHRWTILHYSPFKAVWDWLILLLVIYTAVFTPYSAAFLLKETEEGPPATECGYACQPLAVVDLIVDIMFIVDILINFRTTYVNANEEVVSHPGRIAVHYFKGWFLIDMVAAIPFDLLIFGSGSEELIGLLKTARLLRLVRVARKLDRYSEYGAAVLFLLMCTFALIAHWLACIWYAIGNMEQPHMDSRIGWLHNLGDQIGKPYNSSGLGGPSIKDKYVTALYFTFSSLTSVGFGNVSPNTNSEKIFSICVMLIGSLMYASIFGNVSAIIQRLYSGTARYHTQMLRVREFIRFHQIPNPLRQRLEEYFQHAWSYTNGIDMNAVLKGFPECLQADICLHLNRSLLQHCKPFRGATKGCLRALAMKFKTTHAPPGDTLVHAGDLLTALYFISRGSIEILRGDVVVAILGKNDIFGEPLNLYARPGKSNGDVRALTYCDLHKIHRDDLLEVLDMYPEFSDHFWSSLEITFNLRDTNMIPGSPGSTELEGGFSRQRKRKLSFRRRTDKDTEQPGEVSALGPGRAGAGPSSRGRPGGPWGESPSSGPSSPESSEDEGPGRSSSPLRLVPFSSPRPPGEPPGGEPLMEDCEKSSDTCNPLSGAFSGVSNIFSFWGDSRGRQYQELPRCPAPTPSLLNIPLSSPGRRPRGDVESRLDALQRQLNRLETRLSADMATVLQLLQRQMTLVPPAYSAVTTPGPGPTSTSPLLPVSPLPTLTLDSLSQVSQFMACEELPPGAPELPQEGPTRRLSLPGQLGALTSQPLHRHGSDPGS
- protocol_details: hERG patch clamp assay (% inhibition at 10 μM)
- condition: % inhibition at 10 μM, patch clamp
// condition not met strictly below 30% in hERG; condition met otherwise

COc1ccccc1-c1nc(NCC(C)(C)N)nc(C(Cl)(Cl)Cl)n1 | condition met

Task item: Textbook exercise: given the entry CN1CCN(c2nc(-c3ccc(C(Cl)(Cl)Cl)cc3)nc(C(Cl)(Cl)Cl)n2)CC1 , state whether its hERG is greater than or equal to 30%.
Reply: condition not met

Task item: Confirm if hERG reported for the compound CS(=O)(=O)c1ccc(-c2nc(NCCN3CCCC3)nc(C(Cl)(Cl)Cl)n2)cc1 is 30% or above.
Reply: condition met

* * *

- Tested on: P. falciparum W2
- protocol_details: Malaria SYBR Green Fluorescence Assay, W2 strain
- Assay type: cell-based, Plasmodium falciparum
- condition: SYBR Green Assay
Catalogue of W2 values
Answer format: numeric, ng/mL implied, no suffix.

See these solved cases before continuing.
CSc1ccc(-c2nc(N3CCN(CCO)CC3)nc(C(Cl)(Cl)Cl)n2)cc1 [Cmpd 309] | 122
CCN1CCCC(Nc2nc(Cc3ccc(OC)cc3)nc(C(Cl)(Cl)Cl)n2)C1 (centres unmarked) [Cmpd 86] | 600
COc1ncccc1Nc1nc(NCCN2CCCC2)nc(C(Cl)(Cl)Cl)n1 [Cmpd 350] | 467
CN1CCC(Nc2nc(-c3ccc(C(Cl)(Cl)Cl)cc3)nc(C(Cl)(Cl)Cl)n2)CC1 [Cmpd 61] | 376
Clc1cccc(-c2nc(NCCN3CCCC3)nc(C(Cl)(Cl)Cl)n2)c1 [Cmpd 334] | 2
CC(C)(C)c1ccc(-c2nc(NCCc3ccncc3)nc(C(Cl)(Cl)Cl)n2)cc1 [Cmpd 148] | 151
CN1CCN(c2nc(-c3ccccc3)nc(C(Cl)(Cl)Cl)n2)CC1 [Cmpd 239] | 125
CC(C)(N)CNc1nc(Nc2ccc(OC(F)(F)F)cc2)nc(C(Cl)(Cl)Cl)n1 [Cmpd 296] | 318

// compound FC(F)(F)Oc1ccc(Nc2nc(NCCN3CCCC3)nc(C(Cl)(Cl)Cl)n2)cc1 [Compound 656] , assay P. falciparum W2, W2 value: 2

Result for CN1CCC(Nc2nc(-c3ccc(S(C)(=O)=O)cc3)nc(C(Cl)(Cl)Cl)n2)CC1 [Cmpd 77] , tested on P. falciparum W2, W2: 53

P. falciparum W2 W2 of COc1ccccc1-c1nc(NCCCN2CCCC2)nc(C(Cl)(Cl)Cl)n1 [Cmpd 105] is 73
